B1: SEC22B (parent)
chain: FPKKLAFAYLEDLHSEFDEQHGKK

Variants of: B1
Experiment: protein stability index of a GFP-peptide fusion (GPS, HEK-293T) (PSI 1-6); higher = more stable;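 further: lentivirally expressed fusions sorted by FACS into six bins by GFP to DsRed ratio, PSI derived from sequencing read proportions per bin multiplied by bin number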
Settings: c terminus: a fixed tail appended
Threshold check on protein stability index: at or above 3 gives Fulfilled, strictly below gives Not fulfilled.

>>> group_label("FPKKLAFAYLEDLHSEFDEQHPKK [G22P]")
"Not fulfilled"
>>> group_label("FPKKLAFAYLEDLHSEFDEQHGMK [K23M]")
"Not fulfilled"
>>> group_label("FPFKLAFAYLEDLHSEFDEQHGKK [K3F]")
"Not fulfilled"
>>> group_label("FPKKLAFATLEDLHSEFDEQHGKK [Y9T]")
"Not fulfilled"
>>> group_label("FPKKLMFAYLEDLHSEFDEQHGKK [A6M]")
"Not fulfilled"
>>> group_label("FPKKLAFAYLEDLHGEFDEQHGKK [S15G]")
"Not fulfilled"
>>> group_label("FPSKLAFAYLEDLHSEFDEQHGKK [K3S]")
"Not fulfilled"
>>> group_label("FPKKLAFAYLEDLHSEFDEQHGKQ [K24Q]")
"Not fulfilled"
>>> group_label("FPKKLAFAYLEDSHSEFDEQHGKK [L13S]")
"Not fulfilled"
>>> group_label("FPKKLAFAYLEDLHSEFDEHHGKK [Q20H]")
"Not fulfilled"
>>> group_label("FPKKLAFAYCEDLHSEFDEQHGKK [L10C]")
"Not fulfilled"
>>> group_label("FPKKLAFAYLEDLHSEFDLQHGKK [E19L]")
"Not fulfilled"
>>> group_label("FPKKLAFAYLEDLHSEFQEQHGKK [D18Q]")
"Not fulfilled"
>>> group_label("FPKKLAFAYLERLHSEFDEQHGKK [D12R]")
"Not fulfilled"
>>> group_label("FPKKLAFEYLEDLHSEFDEQHGKK [A8E]")
"Fulfilled"
>>> group_label("FPKKLAQAYLEDLHSEFDEQHGKK [F7Q]")
"Fulfilled"
>>> group_label("FGKKLAFAYLEDLHSEFDEQHGKK [P2G]")
"Fulfilled"
>>> group_label("FPKKLAFAYLEDLHSEFDEQHCKK [G22C]")
"Not fulfilled"
>>> group_label("FPKKFAFAYLEDLHSEFDEQHGKK [L5F]")
"Not fulfilled"
>>> group_label("FPKKLAFAYLEDLHTEFDEQHGKK [S15T]")
"Not fulfilled"
>>> group_label("FPKKLAFAYLEDLHSEFDEQIGKK [H21I]")
"Not fulfilled"
>>> group_label("KPKKLAFAYLEDLHSEFDEQHGKK [F1K]")
"Fulfilled"
>>> group_label("FPKKLAFAYMEDLHSEFDEQHGKK [L10M]")
"Not fulfilled"
>>> group_label("FPKKLAFAYLEDLHSNFDEQHGKK [E16N]")
"Not fulfilled"
>>> group_label("FPKKLAFAYWEDLHSEFDEQHGKK [L10W]")
"Not fulfilled"
>>> group_label("FPKKLAFAYHEDLHSEFDEQHGKK [L10H]")
"Not fulfilled"
>>> group_label("FPKKLAFAYLEDLHSEFDEQHEKK [G22E]")
"Not fulfilled"
>>> group_label("FPKKLAFAYLEDLHSEFDEMHGKK [Q20M]")
"Not fulfilled"
>>> group_label("FPKKLAFAYLEDLHSEFDEQSGKK [H21S]")
"Not fulfilled"
>>> group_label("FPKKLANAYLEDLHSEFDEQHGKK [F7N]")
"Fulfilled"
>>> group_label("FPKKLAFAYLEDLHDEFDEQHGKK [S15D]")
"Not fulfilled"
>>> group_label("FPKKLAFAYLEDLHSEFDAQHGKK [E19A]")
"Not fulfilled"
>>> group_label("FPKMLAFAYLEDLHSEFDEQHGKK [K4M]")
"Not fulfilled"
>>> group_label("VPKKLAFAYLEDLHSEFDEQHGKK [F1V]")
"Fulfilled"
>>> group_label("FPKKLAFAYLEDLHSEWDEQHGKK [F17W]")
"Not fulfilled"
>>> group_label("FPKKLAFAYLEDLHFEFDEQHGKK [S15F]")
"Not fulfilled"
>>> group_label("FPKKWAFAYLEDLHSEFDEQHGKK [L5W]")
"Not fulfilled"
>>> group_label("FPKNLAFAYLEDLHSEFDEQHGKK [K4N]")
"Not fulfilled"
>>> group_label("FPKKLAFAYLEDLHSEFDEQHGYK [K23Y]")
"Not fulfilled"
>>> group_label("EPKKLAFAYLEDLHSEFDEQHGKK [F1E]")
"Fulfilled"
>>> group_label("FPKKYAFAYLEDLHSEFDEQHGKK [L5Y]")
"Not fulfilled"
>>> group_label("FPKKLAFAYLEDLHSEFDEQFGKK [H21F]")
"Not fulfilled"
>>> group_label("WPKKLAFAYLEDLHSEFDEQHGKK [F1W]")
"Fulfilled"
>>> group_label("FPKKLARAYLEDLHSEFDEQHGKK [F7R]")
"Fulfilled"
>>> group_label("FPKKLAFAYLEDLHSQFDEQHGKK [E16Q]")
"Not fulfilled"
>>> group_label("FPKKLAFAYLMDLHSEFDEQHGKK [E11M]")
"Not fulfilled"
>>> group_label("FPKLLAFAYLEDLHSEFDEQHGKK [K4L]")
"Not fulfilled"
>>> group_label("FPKKLATAYLEDLHSEFDEQHGKK [F7T]")
"Fulfilled"
>>> group_label("FPYKLAFAYLEDLHSEFDEQHGKK [K3Y]")
"Not fulfilled"
>>> group_label("FPKKLAFAYLEGLHSEFDEQHGKK [D12G]")
"Not fulfilled"
>>> group_label("FPKVLAFAYLEDLHSEFDEQHGKK [K4V]")
"Not fulfilled"
>>> group_label("FPKKLAFAYIEDLHSEFDEQHGKK [L10I]")
"Not fulfilled"
>>> group_label("FPKKLAYAYLEDLHSEFDEQHGKK [F7Y]")
"Not fulfilled"
>>> group_label("FPKKLAFAYLLDLHSEFDEQHGKK [E11L]")
"Not fulfilled"
>>> group_label("FPKKLAFAYLRDLHSEFDEQHGKK [E11R]")
"Not fulfilled"
>>> group_label("FPKKLAFAYLEDLHVEFDEQHGKK [S15V]")
"Not fulfilled"
>>> group_label("FPKKLAFAYLEDLHSEFDEQHGKN [K24N]")
"Not fulfilled"
>>> group_label("FPKKLDFAYLEDLHSEFDEQHGKK [A6D]")
"Fulfilled"
>>> group_label("FPKKMAFAYLEDLHSEFDEQHGKK [L5M]")
"Not fulfilled"
>>> group_label("FPKKLAFAYLEDLHSEFDEEHGKK [Q20E]")
"Not fulfilled"
>>> group_label("FPKKNAFAYLEDLHSEFDEQHGKK [L5N]")
"Not fulfilled"
>>> group_label("FPKKLAFFYLEDLHSEFDEQHGKK [A8F]")
"Not fulfilled"
>>> group_label("FAKKLAFAYLEDLHSEFDEQHGKK [P2A]")
"Not fulfilled"
>>> group_label("FPKKLAFAYLEDLHSEFTEQHGKK [D18T]")
"Not fulfilled"
>>> group_label("PPKKLAFAYLEDLHSEFDEQHGKK [F1P]")
"Fulfilled"
>>> group_label("FPKKLIFAYLEDLHSEFDEQHGKK [A6I]")
"Not fulfilled"
>>> group_label("FPKELAFAYLEDLHSEFDEQHGKK [K4E]")
"Fulfilled"
